Here the recorded microsomal CLint at 1 μM is given for each entry.
Assay: Metabolic stability in liver microsomes
Format: in vitro ADME, male Sprague-Dawley rat
Details: male, Sprague-Dawley, rat, liver microsomes, pH 7.4

Entry Clc1ccccc1CN1CCOCC1 [Compound 3, 4-(2-chlorobenzyl)morpholine] : reported microsomal CLint at 1 μM = ?
149 µL/min/mg

Entry Fc1cccc(Cl)c1CN1CCOCC1 [Compound 7, 4-(2-chloro-6-fluorobenzyl)morpholine] : reported microsomal CLint at 1 μM = ?
173 µL/min/mg

###

Assay: Metabolic stability in knockout mouse lung microsomes
Format: in vitro ADME
Details: B6 Cyp2a(4/5)bgs-Null, mouse, lung microsomes from knockout mice, pH 7.4
property: microsomal CLint at 1 μM (µL/min/mg)
Your answer should be a plain number; it is taken to be in µL/min/mg.

Entry Fc1cccc(Cl)c1CN1CCOCC1 [Compound 7, 4-(2-chloro-6-fluorobenzyl)morpholine] : reported microsomal CLint at 1 μM = ?
10.4

###

Assay: Metabolic stability in wild type mouse liver microsomes
Type: in vitro ADME
Details: pH 7.4
property: microsomal CLint at 1 μM (µL/min/mg)
Your answer should be a plain number; it is taken to be in µL/min/mg.

Entry Fc1cccc(Cl)c1CN1CCOCC1 : reported microsomal CLint at 1 μM = ?
95.3

###

Target: human CYP2A13 (Homo sapiens)
Test: Coumarin metabolism assay
property: Ki (µM)
Your answer should be a plain number; it is taken to be in µM.

Query Ki on human CYP2A13 (Homo sapiens) for CC1CN(Cc2cccc(Cl)c2Cl)CC(C)O1 (centres unmarked)
646

Query Ki on human CYP2A13 (Homo sapiens) for Brc1ccccc1CN1CCOCC1
17.6

Query Ki on human CYP2A13 (Homo sapiens) for Clc1ccc(CN2CCOCC2)c(Cl)c1
113

Query Ki on human CYP2A13 (Homo sapiens) for Cc1ccccc1CN1CCOCC1
66.9

Query Ki on human CYP2A13 (Homo sapiens) for Clc1cccc(Cl)c1CN1CCOCC1
18.1

###

Molecular target: CYP2B6 (Homo sapiens, UniProt P20813)
Sequence (P20813 1-491): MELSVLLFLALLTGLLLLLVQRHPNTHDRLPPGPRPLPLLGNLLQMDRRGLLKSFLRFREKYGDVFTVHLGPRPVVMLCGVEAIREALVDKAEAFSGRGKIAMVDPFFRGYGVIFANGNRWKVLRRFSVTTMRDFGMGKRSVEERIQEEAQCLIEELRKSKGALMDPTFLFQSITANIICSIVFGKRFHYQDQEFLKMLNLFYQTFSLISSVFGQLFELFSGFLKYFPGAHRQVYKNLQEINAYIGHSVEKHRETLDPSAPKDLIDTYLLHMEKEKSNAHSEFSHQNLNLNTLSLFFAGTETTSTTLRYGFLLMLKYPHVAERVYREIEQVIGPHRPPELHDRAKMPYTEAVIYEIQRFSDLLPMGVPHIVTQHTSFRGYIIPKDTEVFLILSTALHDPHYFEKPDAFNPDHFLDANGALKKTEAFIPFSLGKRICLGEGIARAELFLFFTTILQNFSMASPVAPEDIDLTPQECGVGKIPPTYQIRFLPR
Experiment: Metabolic stability phenotyping with recombinantly expressed CYPs
Type: in vitro ADME
Conditions: recombinant CYP2B6, pH 7.4
property: half-life at 1 μM

Clc1ccccc1CN1CCOCC1; < 5 min

Turning to the following compound.
Entry Fc1cccc(Cl)c1CN1CCOCC1 : reported half-life at 1 μM = ?
< 5 min
